- run description: inhibitors of intracellular T. cruzi growth, primary screen, luminescence, NIH3T3 host cells (AID 1885);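 note: signal also drops with host cell toxicity which is not excluded here; 0% = plate median of DMSO wells and 100% = zero luminescence signal; higher percent means less beta-gal luminescence so fewer parasites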
- test settings: T. cruzi beta-gal in NIH3T3, luminescence, 90 h; hits give high values; concentration not given here
The whole screen tested about 300,000 compounds, of which about 4,400 (1.5%) were called active. Many of the other results were omitted from the sample, so actives are more common in it than they were.
Listing: inhibition of selected molecules
Number in %, nothing else.

Illustrative cases are given below, each with its answer.
CCc1noc(C)c1C(=O)Nc1nc(-c2ccccc2)cs1 ... 6.55
Cc1ccc(OCCCCN2CCCCC2)c(Br)c1 ... 54.8
COc1ccc(-c2cc(C(=O)N/N=C/c3cccnc3)c3ccccc3n2)c(OC)c1 ... -3.19
CC(=O)c1ccc(S(=O)(=O)N2CCC3(CC2)OCCO3)cc1 ... 4.17

Request: Give reported inhibition value for COc1ccc(C(C)=O)cc1COc1ccc(Cl)c(C)c1
Result: 14.6

Request: Give reported inhibition value for COc1ccc(C2=NN(C(C)=O)C(c3ccccc3)C2)cc1 (stereo unspecified)
Result: -1.39

Request: Give reported inhibition value for O=C(Nc1ccccc1C(=O)Nc1ccncc1)c1ccc([N+](=O)[O-])cc1
Result: 31.4

Request: Give reported inhibition value for Nn1c(SCc2ccccc2)nnc1C1CCCCC1
Result: 2.33

Request: Give reported inhibition value for CC(OC(=O)c1ccc(S(=O)(=O)N2CCOCC2)cc1)c1ccccc1 (stereo unspecified)
Result: 1.58

Request: Give reported inhibition value for COc1ccc(C2CC(c3ccccc3)=NN2C(=O)CSc2nccc(=O)[nH]2)cc1 (stereo unspecified)
Result: -0.127

Request: Give reported inhibition value for c1ccc(Nc2nc(-c3ccncc3)cs2)nc1
Result: 64

====

- run description: inhibitors of intracellular T. cruzi growth, primary screen, luminescence, NIH3T3 host cells (AID 1885)
- test settings: T. cruzi beta-gal in NIH3T3, luminescence, 90 h; concentration not given here
In all, about 300,000 compounds went through this assay and about 4,400 (1.5%) were called active.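 The calls were made as follows: active = mean inhibition across valid replicates above about 55% (limit read from the data); inconclusive = mean below that limit but half or more replicates reach it; inactive = mean below it, under half of replicates reach it.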 This is one part of a sample in which actives are shown more often than they occur.
In this exercise, the only acceptable responses are YES = active, NO = inactive

Before answering, review these 2 worked examples.
COc1ccc(NC(=O)CSc2nnc(Cc3ccccc3)c(=O)n2N)cc1 ... NO
COc1ccc(C2CC(c3ccc([N+](=O)[O-])cc3)=NN2C(C)=O)cc1 (stereo not given) ... NO

Request: Please share the test call associated with CCOc1ccc(NC(=O)CCC(=O)N/N=C/c2ccc([N+](=O)[O-])s2)cc1 .
Result: NO

Request: Please share the test call associated with COc1ccc(C(=O)NCC(=O)N/N=C/c2ccc([N+](=O)[O-])o2)cc1OC .
Result: NO

Request: Please share the test call associated with Cc1cccc(/C=N/NC(=O)CNc2cccc3ccccc23)n1 .
Result: NO

Request: Please share the test call associated with Cc1ccccc1NCC(=O)N/N=C\c1ccc([N+](=O)[O-])s1 .
Result: YES

Request: Please share the test call associated with O=C1CC(Sc2ncn[nH]2)C(=O)N1c1ccccc1 (stereo not given) .
Result: NO

====

- run description: inhibitors of intracellular T. cruzi growth, primary screen, luminescence, NIH3T3 host cells (AID 1885)
- test settings: T. cruzi beta-gal in NIH3T3, luminescence, 90 h; hits give high values; concentration not given here
Screen size: about 300,000 compounds; about 4,400 (1.5%) were called active. The full list was thinned out, with actives kept by preference.
Listing: inhibition of selected compounds
Number in %, nothing else.

Illustrative cases are given below, each with its answer.
CC(NS(=O)(=O)c1ccc(Br)cc1)C(=O)NCC1CCCO1 (stereo not drawn) ... 0.0781
O=C(NNS(=O)(=O)c1ccc([N+](=O)[O-])cc1)C1CCCCC1 ... -10.2
Cc1ccc(CN(Cc2cccnc2)C(=S)Nc2cc(Cl)ccc2C)cc1 ... 77.2

Request: Give reported inhibition value for O=C(N/N=C/c1ccccn1)c1cccnc1
Result: 3.75

Request: Give reported inhibition value for COc1ccccc1C1=Nc2cccc3cccc(c23)N1
Result: 55

====

- run description: inhibitors of intracellular T. cruzi growth, primary screen, luminescence, NIH3T3 host cells (AID 1885);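 note: signal also drops with host cell toxicity which is not excluded here; 0% = plate median of DMSO wells and 100% = zero luminescence signal; higher percent means less beta-gal luminescence so fewer parasites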
- test settings: T. cruzi beta-gal in NIH3T3, luminescence, 90 h; hits give high values; concentration not given here
Among all 300,000 compounds or so, about 4,400 (1.5%) were called active. The sample as a whole holds a higher share of actives than the screen did.
value kind: inhibition (%)
Number in %, nothing else.

Illustrative cases are given below, each with its answer.
CCc1ccc(S(=O)(=O)N/N=C\c2ccc([N+](=O)[O-])o2)cc1 ... 19
COc1cccc(CNC(=O)CCC2CCCN(Cc3ccc(OC(F)F)cc3)C2)c1 (configuration not stated) ... 49.4
Cc1cc(C)nc(N/N=C/c2ccc([N+](=O)[O-])o2)n1 ... 26.9

Request: Give reported inhibition value for C(=N\N1CCN(c2ccccn2)CC1)/C1=C(N2CCOCC2)C(=C/c2ccccc2)/CC1
Result: -15.4

Request: Give reported inhibition value for COc1ccc(NC(=O)CN(C)C(=O)CC2CCCCC2)cc1
Result: -3.55

Request: Give reported inhibition value for COc1ccc(NC(=O)CN(C)C(=O)/C=C/c2cn(Cc3ccccc3)nc2-c2cccnc2)cc1
Result: 4

Request: Give reported inhibition value for CCCCN(CCCC)CCCNC(=O)CN1C(=O)COc2ccc(S(=O)(=O)N3CCC(C)CC3)cc21
Result: 10.4

Request: Give reported inhibition value for CC1(c2cccc([N+](=O)[O-])c2)CC(C)(C)N(C(=O)c2ccccc2)c2ccccc21 (configuration not stated)
Result: 37.9

Request: Give reported inhibition value for Cc1cc(OCC(=O)NC2CCN(C)CC2)ccc1[N+](=O)[O-]
Result: 49.2

Request: Give reported inhibition value for CC(C)CN(C(=O)COC(=O)c1ccc2ccccc2c1)c1c(N)n(Cc2ccccc2)c(=O)[nH]c1=O
Result: 2.62

Request: Give reported inhibition value for CN1CCN(c2ccc(S(=O)(=O)N3CCOCC3)cc2NC(=O)CCc2ccccc2)CC1
Result: 54.9

Request: Give reported inhibition value for CCNC(=O)COC(=O)CCNC(=O)c1cccc(C)c1
Result: 8.59

Request: Give reported inhibition value for COc1ccc(S(=O)(=O)N2CCCCC2)cc1NC(=O)C1CC(=O)N(c2ccc3c(c2)OCCO3)C1 (configuration not stated)
Result: -2.94

Request: Give reported inhibition value for O=C(CCC1CCCN(Cc2ccc(O)c(Cl)c2)C1)NCc1ccccc1F (configuration not stated)
Result: 65.4

Request: Give reported inhibition value for CCN1CCN(c2ccc(S(=O)(=O)N3CCCCC3)cc2NC(=O)c2cccc(NC(C)=O)c2)CC1
Result: 0.05

====

- run description: inhibitors of intracellular T. cruzi growth, primary screen, luminescence, NIH3T3 host cells (AID 1885);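 note: signal also drops with host cell toxicity which is not excluded here; 0% = plate median of DMSO wells and 100% = zero luminescence signal; higher percent means less beta-gal luminescence so fewer parasites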
- test settings: T. cruzi beta-gal in NIH3T3, luminescence, 90 h; hits give high values; concentration not given here
The whole screen tested about 300,000 compounds, of which about 4,400 (1.5%) were called active. This is one part of a sample in which actives are shown more often than they occur.
value kind: inhibition (%)
Number in %, nothing else.

Request: Give reported inhibition value for CC(C)(C)NC(=O)CN1CCC(NC(=O)C23CC4CC(CC(C4)C2)C3)CC1
Result: 26.6

Request: Give reported inhibition value for C=CCOc1ccc(/C=C/C(=O)OCC(=O)NCC2CCCO2)cc1 (stereo not drawn)
Result: -9.89

Request: Give reported inhibition value for COc1cccc(COc2ccc(N(C)S(=O)(=O)c3ccccc3)cc2)c1
Result: 9.64

====

- run description: inhibitors of intracellular T. cruzi growth, primary screen, luminescence, NIH3T3 host cells (AID 1885);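 note: signal also drops with host cell toxicity which is not excluded here; 0% = plate median of DMSO wells and 100% = zero luminescence signal; higher percent means less beta-gal luminescence so fewer parasites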
- test settings: T. cruzi beta-gal in NIH3T3, luminescence, 90 h; hits give high values; concentration not given here
Screen size: about 300,000 compounds; about 4,400 (1.5%) were called active. The entries come from a sample that favours actives as a whole.
value kind: inhibition (%)
Number in %, nothing else.

Cc1cccc(-n2ncc(C#N)c2-n2cccc2)c1 ... -8.8
CCOC(=O)COc1ccc([N+](=O)[O-])cc1 ... -3.58

Request: Give reported inhibition value for COC(=O)C1=C(C)Nc2ncnn2C1c1cccnc1 (centres undefined)
Result: 17.7

Request: Give reported inhibition value for COc1ccc(C)cc1S(=O)(=O)Nc1cc2c3c(c1)CCC(=O)N3CCC2
Result: -2.17

Request: Give reported inhibition value for COc1ccc(CN2CCCC(N3CCc4ccccc4C3)C2)c(O)c1 (centres undefined)
Result: 22.8

Request: Give reported inhibition value for COc1ccc(CC(=O)Nc2ccc3c(c2)CCC3)cc1S(=O)(=O)N1CCOCC1
Result: -10.7

Request: Give reported inhibition value for CC(C)c1csc(CN2CCC(CO)(Cc3ccccc3)CC2)n1
Result: 67.1

Request: Give reported inhibition value for COC(=O)C1=C(C)Nc2ncnn2C1c1ccco1 (centres undefined)
Result: -1.94
